- targetOrSystem: SSTR4 (Homo sapiens)
- methodDescription: cell-based
pEC50: −log10 of the molar value.
measurementLabel: pEC50

Some molecules with recorded pEC50:
molecule: Cc1nc(NCCN2CCCC2)c(C(C)c2ccc(F)cc2)nc1C(=O)O (centres unmarked)
pEC50: 7.86
--
molecule: NC(=O)c1cnc(NCCN2CCCC2)c(Cc2ccc(F)cc2)c1
pEC50: 7.02
--
molecule: Cc1nnc(Cc2ccc(F)cc2)c(NC2CCN(C)CC2)n1
pEC50: 6.85
--
molecule: Cc1nc(NCCN2CCCC2)c(C(C)c2ccc(F)cc2)nc1C(=O)N(C)C1CC1 (centres unmarked)
pEC50: 8.79
--
molecule: C[C@H](c1ccc(F)cc1)c1nc(C(=O)NC2CCOCC2)cnc1NCCN1CCCC1
pEC50: 7.92
--
molecule: Cc1nnc([C@H](C)c2ccc(F)cc2)c(N[C@H]2CCN(C)C2)n1 (single isomer, unassigned)
pEC50: 7.56
--
molecule: Cc1nc(N[C@@H]2CCN(C)C[C@H]2C)c(Cc2ccc(F)cc2)nc1C(=O)N(C)C (racemic)
pEC50: 7.32
--
molecule: C[C@H](c1ccc(F)cc1)c1nc(C(=O)N(C)C2CC2)cnc1NCCN1CCCC1
pEC50: 7.93

P. Cc1nc(NCCN2CCCC2)c(C(C)c2ccc(F)cc2)nc1C(=O)N[C@@H]1CCOC1 (some centres unmarked)
Q. Cc1nnc([C@H](C)c2ccc(F)cc2)c(NCCN2CCC2)n1 (single isomer, unassigned)
q: Please state the entry with greater pEC50 among P and Q . Selection: enter the item's label.
a: P

----------
- targetOrSystem: SSTR1 (Homo sapiens);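 further: competitive binding to membranes of CHO-K1 cells overexpressing SSTR1, incubated 60 min at room temperature, radioactivity read by scintillation counting after filtration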
- Sequence (P30872 whole entry): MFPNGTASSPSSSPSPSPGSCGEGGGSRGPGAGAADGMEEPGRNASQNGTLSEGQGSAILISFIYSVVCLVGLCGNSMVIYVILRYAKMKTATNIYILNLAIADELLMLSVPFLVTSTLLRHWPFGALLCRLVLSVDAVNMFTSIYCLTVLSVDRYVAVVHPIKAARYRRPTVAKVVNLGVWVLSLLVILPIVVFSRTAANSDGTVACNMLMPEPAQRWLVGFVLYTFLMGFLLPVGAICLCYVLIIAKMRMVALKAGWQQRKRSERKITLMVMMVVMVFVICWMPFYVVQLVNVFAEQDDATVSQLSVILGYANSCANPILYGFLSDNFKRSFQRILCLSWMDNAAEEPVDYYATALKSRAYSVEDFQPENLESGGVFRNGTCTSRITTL
- methodDescription: biochemical
measurementLabel: IC50 (µM)

The cases that follow already have their IC50 on record.
compound: Cc1nc(N[C@@H]2CCN(C)C[C@H]2C)c(Cc2ccc(F)cc2)nc1C(N)=O (racemic) [Example 45]
endpointResult: 18.2
//
compound: Cc1nnc([C@@H](C)c2ccccc2)c(N[C@H]2CCN(C)C2)n1 (single isomer, unassigned) [Example 152]
endpointResult: 10
//
compound: Cc1cccc(Cc2ncc(C(C)C)nc2NCCN2CCC2)c1 [Example 87]
endpointResult: 3.72
//
compound: Cc1nnc([C@H](C)c2ccc(F)cc2)c(N[C@H]2CCN(C)C2)n1 (single isomer, unassigned) [Example 146]
endpointResult: 10
//
compound: CC(c1ccc(F)cc1)c1ncc(C(=O)N(C)C)nc1NCCN1CCCC1 (centres unmarked) [Example 28]
endpointResult: 1.66

I. Cc1nc(NCCN2CCCC2)c(C(C)c2ccc(F)cc2)nc1C(=O)NC1CC1 (centres unmarked) [Example 62]
II. CNC(=O)c1nc(Cc2ccc(F)cc2)c(NCCN2CCCC2)nc1C [Example 43]
III. CC(c1ccc(F)cc1)c1nc(-c2ncco2)cnc1NCCN1CCCC1 (centres unmarked) [Example 123]
IV. Cc1cnc(-c2nc(C(C)c3ccc(F)cc3)c(NCCN3CCCC3)nc2C)o1 (centres unmarked) [Example 129]
q: Order each entry by recorded IC50, climbing from the minimum. Respond with an ordered listing of the labels, as requested.
a: I, IV, III, II
(I: 1.41 µM, IV: 2.29 µM, III: 3.31 µM, II: 9.77 µM)

A. Cc1nc(NCCN2CCCC2)c(C(C)c2ccc(F)cc2)nc1C(=O)N[C@H]1C[C@@H](F)C1 (some centres unmarked) [Example 64]
B. CNC(=O)c1cnc(NCCN2CCCC2)c([C@@H](C)c2ccc(F)cc2)n1 (single isomer, unassigned) [Example 23]
C. C[C@H](c1ccc(F)cc1)c1nc(C(=O)N[C@H]2CCOC2)cnc1NCCN1CCCC1 [Example 12]
q: Put the entries in order of IC50, starting with the largest number. A complete answer lists every label in the requested sequence.
a: B, C, A

A. COc1cccc(Cc2nc3cccc(C)c3nc2NCCN2CCC2)c1 (single isomer, unassigned) [Example 4]
B. Cc1nc(NCCN2CCC2)c(Cc2ccc(F)cc2)nc1C#N [Example 96]
q: # min-compare on IC50 between A and B Reply briefly: the label of your chosen item.
a: A

----------
- targetOrSystem: SSTR4 (Homo sapiens, UniProt P31391)
- Sequence (P31391 whole entry): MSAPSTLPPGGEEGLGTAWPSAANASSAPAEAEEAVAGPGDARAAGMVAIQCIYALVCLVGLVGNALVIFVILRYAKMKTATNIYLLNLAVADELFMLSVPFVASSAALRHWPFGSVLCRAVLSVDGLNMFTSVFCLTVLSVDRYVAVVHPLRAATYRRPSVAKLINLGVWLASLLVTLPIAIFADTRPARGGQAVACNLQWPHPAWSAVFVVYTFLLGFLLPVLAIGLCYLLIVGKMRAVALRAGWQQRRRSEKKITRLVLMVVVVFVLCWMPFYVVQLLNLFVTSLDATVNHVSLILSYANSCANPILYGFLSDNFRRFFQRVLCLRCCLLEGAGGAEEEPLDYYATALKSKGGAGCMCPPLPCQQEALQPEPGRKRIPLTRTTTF
- methodDescription: SSTR4 I-125 somatostatin competition binding assay (CHO-K1 membranes)
- Parameters: host or cells: CHO-K1
- conditionDetails: competition with I-125 labeled somatostatin, membranes from CHO-K1 overexpressing SSTR4; read-out: SSTR4 Binding pIC50 (converted)
measurementLabel: IC50 (nM)

// solved cases for IC50 follow
compound: Cc1nnc([C@@H](C)c2ccc(F)cc2)c(NCCN2CCC2)n1 (single isomer, unassigned)
targetOrSystem: SSTR4 (Homo sapiens, UniProt P31391)
measurementLabel: IC50
unitDescriptor: nM
endpointResult: 19.5
--
compound: C[C@H](c1ccc(F)cc1)c1nc(C(=O)N[C@@H]2CCOC2)cnc1NCCN1CCCC1
targetOrSystem: SSTR4 (Homo sapiens, UniProt P31391)
measurementLabel: IC50
unitDescriptor: nM
endpointResult: 162

A. Cc1nnc([C@H](C)c2ccccc2)c(N[C@@H]2CCN(C)C2)n1 (single isomer, unassigned)
B. Cc1nc(NCCN2CCCC2)c(C(C)c2ccc(F)cc2)nc1C(=O)N(C)C1CC1 (stereo not drawn)
C. CO[C@@H]1CCN(C(=O)c2nc(C(C)c3ccc(F)cc3)c(NCCN3CCCC3)nc2C)C1 (stereo partly drawn)
q: Ordering criterion: IC50; begin with the maximum. # the answer lists labels in the order requested
a: A, C, B
(A: 174 nM, C: 64.6 nM, B: 17 nM)

----------
- targetOrSystem: SSTR4 (Homo sapiens)
- methodDescription: cell-based
measurementLabel: EC50 (nM)

compound: CCc1nnc(Cc2cccc(C)c2)c(NCCN2CCC2)n1
targetOrSystem: SSTR4 (Homo sapiens)
EC50, nM: 7.94

a. Cc1nc(NCCN2CCCC2)c(C(C)c2ccc(F)cc2)nc1C(=O)N1CCC(F)(F)C1 (stereo not shown)
b. CC(c1ccc(F)cc1)c1nccnc1NCCN1CCCC1 (stereo not shown)
c. Cc1cnc(-c2cnc(NCCN3CCCC3)c(C(C)c3ccc(F)cc3)n2)n1C (stereo not shown)
q: Sort these compounds on EC50 so the largest reading comes first. The response must list the labels following the requested ordering.
a: c, b, a

----------
- targetOrSystem: SSTR4 (Homo sapiens, UniProt P31391)
- methodDescription: cell-based
pEC50: −log10 of the molar value.
measurementLabel: pEC50

Completed entries (count: 6):
compound: C[C@H](c1ccc(F)cc1)c1nccnc1NCCN1CCCC1 (single isomer, unassigned)
endpointResult: 8.36
//
compound: Cc1nnc(C(C)c2ccccc2)c(NCCN2CCC2)n1 (centres unmarked)
endpointResult: 8.37
//
compound: Cc1nc(Cc2ccc(F)cc2)c(NC2CCN(C)CC2)nc1C
endpointResult: 6.64
//
compound: Cc1nnc(Cc2ccc(F)cc2)c(NCCN2CCC2)n1
endpointResult: 6.89
//
compound: C[C@H](c1ccc(F)cc1)c1nc(C(N)=O)cnc1N[C@@H]1CCN(C)C1 (single isomer, unassigned)
endpointResult: 7.31
//
compound: Cc1nc(NCCN2CCCC2)c(C(C)c2ccc(F)cc2)nc1C(=O)N[C@H]1C[C@@H](F)C1 (some centres unmarked)
endpointResult: 7.86

A. CNC(=O)c1nc(Cc2ccc(F)cc2)c(NCCN2CCCC2)nc1C [Example 44]
B. Cc1cccc2nc(NCCN3CCC3)c(Cc3ccccc3)nc12 (single isomer, unassigned)
C. Cc1nc(NCCN2CCCC2)c(C(C)c2ccc(F)cc2)nc1C(=O)NC1CCCC1 (centres unmarked)
D. CNC(=O)c1nc(C(C)c2ccc(F)cc2)c(NCCN2CCCC2)nc1C (centres unmarked)
q: Falling order of pEC50, please. Your reply should list the labels following the order given in the request.
a: D, A, C, B

I. Cc1cccc(Cc2nnc(C)nc2NCCN2CCC2)c1
II. Cc1nc(Cc2ccc(F)cc2)c(NCCN2CCCC2)nc1C
q: Return label of the item with the larger pEC50. Candidates: I , II . Answer with the label corresponding to your selection.
a: I

A. CC(c1ccc(F)cc1)c1nc(C(N)=O)cnc1NCCN1CCCC1 (centres unmarked)
B. Cc1cnc(NCCN2CCCC2)c(C(C)c2ccc(F)cc2)n1 (centres unmarked)
q: Return label of the item with the larger pEC50. Candidates: A , B . Write down the label of the entry you select.
a: A
(A: 8.27, B: 7.10)

----------
- targetOrSystem: SSTR4 (Homo sapiens, UniProt P31391)
- methodDescription: SSTR4 I-125 somatostatin competition binding assay (CHO-K1 membranes)
- Parameters: host or cells: CHO-K1
- conditionDetails: competition with I-125 labeled somatostatin, membranes from CHO-K1 overexpressing SSTR4; read-out: SSTR4 Binding pIC50 (converted)
- Text: SSTR4I-125 Somatostatin Competition Binding Assay Membranes from CHO-K1 cells overexpressing SSTR4 are purchased from Perkin Elmer (catalog number ES-524-M400UA). […] The scintillator sheets are melted to filters using a heat block.
measurementLabel: IC50 (nM)

Example cases with answers are listed next.
compound: Cc1nc(NCCN2CCC2)c(Cc2ccc(F)cc2)nc1C#N
unitDescriptor: nM
IC50: 61.7
--
compound: Cc1nnc(C(C)c2ccccc2)c(NCCN2CCC2)n1 (stereo not shown)
unitDescriptor: nM
IC50: 49
--
compound: Cc1nnc([C@H](C)c2ccc(F)cc2)c(NCCN2CCC2)n1 (single isomer, unassigned)
unitDescriptor: nM
IC50: 209
--
compound: Cc1nc(NCCN2CCCC2)c(C(C)c2ccc(F)cc2)nc1C(=O)N1CC[C@@H](F)C1 (stereo partly shown)
unitDescriptor: nM
IC50: 63.1
--
compound: CC(c1ccc(F)cc1)c1nc(-c2nccn2C)cnc1NCCN1CCCC1 (stereo not shown)
unitDescriptor: nM
IC50: 245
--
compound: Cc1nnc([C@@H](C)c2ccccc2)c(NCCN2CCC2)n1 (single isomer, unassigned)
unitDescriptor: nM
IC50: 25.1
--
compound: Cc1nc(NCCN2CCCC2)c(C(C)c2ccc(F)cc2)nc1C(=O)N[C@@H]1CCOC1 (stereo partly shown)
unitDescriptor: nM
IC50: 20.4
--
compound: CNC(=O)c1cnc(NCCN2CCCC2)c([C@H](C)c2ccc(F)cc2)n1 (single isomer, unassigned)
unitDescriptor: nM
IC50: 45.7

A. Cc1nnc([C@H](C)c2ccc(F)cc2)c(N[C@H]2CCN(C)C2)n1 (single isomer, unassigned)
B. C[C@H](c1ccc(F)cc1)c1nccnc1NCCN1CCCC1 (single isomer, unassigned)
q: # return whichever of A and B has the smaller IC50 Respond using the label that marks the chosen record.
a: B
